The reported numbers originate from the Human Domainome abundance scans (Beltran et al. 2025).

B1: Unconventional myosin-Ie, residues 1051 to 1108; numbered along this chain, Q12965 (parent)
chain: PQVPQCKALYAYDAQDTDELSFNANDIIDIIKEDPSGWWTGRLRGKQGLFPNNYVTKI

variants of: B1; assay: abundance fitness (aPCA) (normalised: wild type 0, dead -1); higher = more abundant; growth selection in yeast, the domain comes from the species named; conditions: Homo sapiens
Property measured: abundance fitness
Quick one: just the number, no unit, thanks!

Some variants with known abundance fitness results, for comparison:
INSERT INTO results (variant_id, property_measured, value) VALUES
  ('D16M', 'abundance fitness', -0.098),
  ('D13G', 'abundance fitness', -0.304);

Next up:
Item under review: L9S . Reported abundance fitness?
-0.3
